tested on: HCT-15; assay: Inhibitory concentration of compound for cytotoxicity against HCT15 human colon cells was determined; assay type: functional, cell-based
assay readout: IC50 (µg/mL)
All answers are understood in µg/mL, so give the number only.

Solved cases below.
> print(dat)
                                   compound  assay.readout  data.value
1  CCOC(=O)Nc1nc(=O)n(C2O[C@H](C(=O)O)[C@@H](O)[C@H]2O)cc1F (some centres not stated)           IC50        0.47
2  O=C(Nc1nc(=O)n(C2O[C@H](C(=O)O)[C@@H](O)[C@H]2O)cc1F)Oc1ccccc1 (some centres not stated)           IC50        0.39
3                   O=c1[nH]cc(F)c(=O)[nH]1           IC50        0.11
4  C=CCOC(=O)Nc1nc(=O)n(C2O[C@H](C(=O)O)[C@@H](O)[C@H]2O)cc1F (some centres not stated)           IC50       0.032
5  CCCCCOC(=O)Nc1nc(=O)n(C2O[C@H](C(=O)O)[C@@H](O)[C@H]2O)cc1F (some centres not stated)           IC50        0.12

Prompt: Suppose we examine the compound O=C(Nc1nc(=O)n(C2O[C@H](C(=O)O)[C@@H](O)[C@H]2O)cc1F)OCc1ccccc1 (some centres not stated) ; what IC50 value has been reported?
Completion: 0.17

Prompt: Entry C#CCOC(=O)Nc1nc(=O)n(C2O[C@H](C(=O)O)[C@@H](O)[C@H]2O)cc1F (some centres not stated) has what IC50?
Completion: 0.04

---

LD50 values for the compounds below.
assay: Toxicity by oral administration of single dose in mice; details: mouse, in vivo
Give the value, in units of mg/kg, as a plain number.

> print(dat)
                                   compound  data.value
1  C#CCOC(=O)Nc1nc(=O)n(C2O[C@H](C(=O)O)[C@@H](O)[C@H]2O)cc1F (some centres not stated)          12

# ---- query compound ----
Prompt: I'd like to know its LD50. The compound in question is C=CCOC(=O)Nc1nc(=O)n(C2O[C@H](C(=O)O)[C@@H](O)[C@H]2O)cc1F (some centres not stated)
Completion: 650

---

system: A549; experiment: Inhibitory concentration of compound for cytotoxicity against […] human lung cells was determined; format: functional, cell-based
Could you mark each record TRUE if its IC50 falls strictly under 0.4 µg/mL, and FALSE if it equals or exceeds it?

Consider the worked cases shown below.
> print(dat)
                                   compound  experimental.system  category.label
1                   O=c1[nH]cc(F)c(=O)[nH]1                 A549            TRUE
2  O=C(Nc1nc(=O)n(C2O[C@H](C(=O)O)[C@@H](O)[C@H]2O)cc1F)Oc1ccccc1 (some centres not stated)                 A549           FALSE
3  C=CCOC(=O)Nc1nc(=O)n(C2O[C@H](C(=O)O)[C@@H](O)[C@H]2O)cc1F (some centres not stated)                 A549            TRUE
4  O=C(Nc1nc(=O)n(C2O[C@H](C(=O)O)[C@@H](O)[C@H]2O)cc1F)OCc1ccccc1 (some centres not stated)                 A549            TRUE
5  C#CCOC(=O)Nc1nc(=O)n(C2O[C@H](C(=O)O)[C@@H](O)[C@H]2O)cc1F (some centres not stated)                 A549            TRUE

Prompt: Lab note: confirm whether the reported IC50 for this compound is below 0.4 µg/mL, equality not counting. compound: CCOC(=O)Nc1nc(=O)n(C2O[C@H](C(=O)O)[C@@H](O)[C@H]2O)cc1F (some centres not stated)
Completion: FALSE

Prompt: Input CCCCCOC(=O)Nc1nc(=O)n(C2O[C@H](C(=O)O)[C@@H](O)[C@H]2O)cc1F (some centres not stated) ; condition: IC50 strictly below 0.4 µg/mL. Does it hold?
Completion: TRUE
